biological target: TRKA (G595R) (Homo sapiens (Human), UniProt P04629, G595R); test: Radio-tagged HotSpot kinase assay, TRKA (G595R)
Sequence (P04629 33-796 G595R): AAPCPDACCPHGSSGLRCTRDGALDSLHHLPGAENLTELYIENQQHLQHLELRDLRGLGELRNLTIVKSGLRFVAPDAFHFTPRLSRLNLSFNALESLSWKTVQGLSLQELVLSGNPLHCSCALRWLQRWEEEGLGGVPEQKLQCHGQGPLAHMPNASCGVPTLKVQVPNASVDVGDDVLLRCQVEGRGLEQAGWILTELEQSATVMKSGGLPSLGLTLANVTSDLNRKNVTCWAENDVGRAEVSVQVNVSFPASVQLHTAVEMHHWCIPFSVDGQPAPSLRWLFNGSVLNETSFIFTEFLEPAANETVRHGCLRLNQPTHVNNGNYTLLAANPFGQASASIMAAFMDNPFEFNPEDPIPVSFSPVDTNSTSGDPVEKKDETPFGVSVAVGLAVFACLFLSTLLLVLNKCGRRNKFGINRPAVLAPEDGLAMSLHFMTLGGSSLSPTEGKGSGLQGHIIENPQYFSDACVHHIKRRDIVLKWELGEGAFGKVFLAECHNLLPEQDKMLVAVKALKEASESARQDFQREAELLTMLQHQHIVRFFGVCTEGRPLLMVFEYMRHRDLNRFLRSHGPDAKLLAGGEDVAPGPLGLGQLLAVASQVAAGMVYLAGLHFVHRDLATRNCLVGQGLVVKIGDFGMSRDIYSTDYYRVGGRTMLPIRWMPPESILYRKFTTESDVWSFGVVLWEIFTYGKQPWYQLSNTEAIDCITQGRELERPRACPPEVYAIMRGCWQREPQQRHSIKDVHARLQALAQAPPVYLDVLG
pIC50: −log10 of the molar value.
Measured pIC50 of individual entries

The cases that follow already have their pIC50 on record.
CCOc1ccc(F)cc1[C@@H](C)Nc1ccn2ncc(C3=NOC(C)(C)N3)c2n1 [Example 50] ... 8.30 to 9.30
C[C@@H](Nc1ccn2ncc(C3=NOC(C)(C)N3)c2n1)c1cc(F)ccc1Br [Example 23] ... 7.30 to 8.30

Quick one: pIC50 of Cc1nc(-c2cnn3ccc(N[C@H](C)c4cc(F)ccc4O)nc23)no1 [Example 67] ? 7.30 to 8.30

Check C[C@H](Nc1ccn2ncc(C3=NOC(C)(C)N3)c2n1)c1cc(F)cc2ccccc12 [Example 54] too. 8.30 to 9.30

###

biological target: TRKA (G595R) (Homo sapiens (Human), UniProt P04629, G595R); assay: Radio-tagged HotSpot kinase assay, TRKA (G595R); conditions: read-out: TRKA (G595R) (IC50/nM); 33P-ATP, 120 min, room temperature
Measured IC50 of individual entries

CCCCC1NC(c2cnn3ccc(N[C@H](C)c4cc(F)ccc4O)nc23)=NO1 (some centres unmarked) ... < 0.5 nM

Kindly review the next molecule as well.
Quick one: IC50 of C[C@@H](Nc1ccn2ncc(C3=NOC(C)(C)N3)c2n1)c1cc(F)ccc1O ? < 0.5 nM

###

target: UniProtKB Q9UM73; test: Radio-tagged HotSpot kinase assay, ALK; format: biochemical; conditions: 33P-ATP, 120 min, room temperature
Reported Metric: IC50

The cases that follow already have their IC50 on record.
C[C@@H](Nc1ccn2ncc(C3=NOC(C)(C)N3)c2n1)c1cc(F)ccc1F [Example 5] ... 0.5 to 5 nM
COc1ncc(F)cc1[C@@H](C)Nc1ccn2ncc(C3=NOC(C)(C)N3)c2n1 [Example 28] ... 5 to 50 nM
CC(C)Oc1ccc(F)cc1[C@@H](C)Nc1ccn2ncc(C3=NOC(C)(C)N3)c2n1 [Example 51] ... 5 to 50 nM
C[C@@H](Nc1ccn2ncc(C3=NOC(C)(C)N3)c2n1)c1ccccc1Cl [Example 26] ... 5 to 50 nM

Quick one: IC50 of Cc1ccc(F)cc1[C@@H](C)Nc1ccn2ncc(C3=NOC(C)(C)N3)c2n1 [Example 42] ? 5 to 50 nM

Check CCOc1ccc(F)cc1[C@@H](C)Nc1ccn2ncc(C3=NOC(C)(C)N3)c2n1 [Example 50] too. 5 to 50 nM

Check [2H]C([2H])([2H])Oc1ccc(F)cc1[C@@H](C)Nc1ccn2ncc(C3=NOC(C)(C)N3)c2n1 [Example 4] too. 0.5 to 5 nM

Check C[C@@H](Oc1ccn2ncc(C3=NOC(C)(C)N3)c2n1)c1c(Cl)ccc(F)c1Cl [Example 9] too. 50 to 500 nM

###

Measured IC50 of individual entries
biological target: TRKA (G595R) (Homo sapiens (Human), UniProt P04629, G595R); assay: Radio-tagged HotSpot kinase assay, TRKA (G595R)

The cases that follow already have their IC50 on record.
COc1ncc(F)cc1[C@@H](C)Nc1ccn2ncc(C3=NOC(C)(C)N3)c2n1 [Example 28] ... 0.5 to 5 nM
CC(C)Oc1ccc(F)cc1[C@@H](C)Nc1ccn2ncc(C3=NOC(C)(C)N3)c2n1 [Example 51] ... 5 to 50 nM
COC(=O)N1CCC2(CC1)NC(c1cnn3ccc(N[C@H](C)c4cc(F)ccc4OC)nc13)=NO2 [Example 55] ... 0.5 to 5 nM
[2H]C([2H])([2H])Oc1ccc(F)cc1[C@@H](C)Nc1ccn2ncc(C3=NOC(C)(C)N3)c2n1 [Example 4] ... 5 to 50 nM
CCc1ccc(F)cc1[C@@H](C)Nc1ccn2ncc(C3=NOC(C)(C)N3)c2n1 [Example 52] ... 5 to 50 nM

Quick one: IC50 of COc1ccc(F)cc1[C@@H](C)Nc1ccn2ncc(C3=NOC(C)(C)N3)c2n1 [Example 10] ? 0.5 to 5 nM

Check CCOCC1(C)NC(c2cnn3ccc(N[C@H](C)c4cc(F)ccc4O)nc23)=NO1 (some centres unmarked) [Example 66] too. 0.5 to 5 nM

Check COc1ccc(F)cc1[C@@H](C)Oc1ccn2ncc(C3=NOC(C)(C)N3)c2n1 [Example 71] too. 0.5 to 5 nM

###

target: TRKC (Homo sapiens (Human), UniProt Q16288); assay: Radio-tagged HotSpot kinase assay, TRKC; format: biochemical; settings: 33P-ATP, 120 min, room temperature
Sequence (Q16288 32-839): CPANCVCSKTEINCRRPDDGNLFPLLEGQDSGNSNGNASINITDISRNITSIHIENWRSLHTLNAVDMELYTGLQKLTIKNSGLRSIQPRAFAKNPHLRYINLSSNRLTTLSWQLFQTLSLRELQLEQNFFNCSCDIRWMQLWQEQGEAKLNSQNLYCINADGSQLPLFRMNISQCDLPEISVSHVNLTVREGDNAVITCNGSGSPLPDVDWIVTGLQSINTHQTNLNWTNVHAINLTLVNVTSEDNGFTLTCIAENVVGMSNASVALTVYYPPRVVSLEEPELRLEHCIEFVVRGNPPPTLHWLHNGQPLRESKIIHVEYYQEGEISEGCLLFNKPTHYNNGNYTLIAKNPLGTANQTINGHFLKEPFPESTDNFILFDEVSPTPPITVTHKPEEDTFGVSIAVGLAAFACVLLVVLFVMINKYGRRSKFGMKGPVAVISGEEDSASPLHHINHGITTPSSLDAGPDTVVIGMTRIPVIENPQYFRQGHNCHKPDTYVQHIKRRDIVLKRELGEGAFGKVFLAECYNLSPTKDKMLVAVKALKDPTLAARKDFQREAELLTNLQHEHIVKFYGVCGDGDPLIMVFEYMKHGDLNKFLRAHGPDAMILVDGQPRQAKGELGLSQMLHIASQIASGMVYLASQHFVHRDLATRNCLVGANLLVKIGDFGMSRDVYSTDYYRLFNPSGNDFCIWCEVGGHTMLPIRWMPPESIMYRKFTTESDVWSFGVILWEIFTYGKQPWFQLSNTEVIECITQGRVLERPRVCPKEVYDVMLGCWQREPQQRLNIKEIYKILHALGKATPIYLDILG
Reported Metric: IC50

Quick one: IC50 of CCOCC1(C)NC(c2cnn3ccc(N[C@H](C)c4cc(F)ccc4O)nc23)=NO1 (some centres unmarked) ? < 0.5 nM

Check C[C@@H](Nc1ccn2ncc(C3=NOC(C)(C)N3)c2n1)c1cc(F)ccc1O too. < 0.5 nM

Check Cc1nc(-c2cnn3ccc(N[C@H](C)c4cc(F)ccc4O)nc23)no1 too. 0.5 to 5 nM

Check C[C@@H](Nc1ccn2ncc(C3=NOC(C)(C)N3)c2n1)c1ccccc1Cl too. 0.5 to 5 nM

Check CCCCC1NC(c2cnn3ccc(N[C@H](C)c4cc(F)ccc4O)nc23)=NO1 (some centres unmarked) too. < 0.5 nM

###

biological target: ALK (Homo sapiens (Human)); assay: Radio-tagged HotSpot kinase assay, ALK; assay type: biochemical; details: 33P-ATP, 120 min, room temperature
Sequence (Q9UM73 19-1620): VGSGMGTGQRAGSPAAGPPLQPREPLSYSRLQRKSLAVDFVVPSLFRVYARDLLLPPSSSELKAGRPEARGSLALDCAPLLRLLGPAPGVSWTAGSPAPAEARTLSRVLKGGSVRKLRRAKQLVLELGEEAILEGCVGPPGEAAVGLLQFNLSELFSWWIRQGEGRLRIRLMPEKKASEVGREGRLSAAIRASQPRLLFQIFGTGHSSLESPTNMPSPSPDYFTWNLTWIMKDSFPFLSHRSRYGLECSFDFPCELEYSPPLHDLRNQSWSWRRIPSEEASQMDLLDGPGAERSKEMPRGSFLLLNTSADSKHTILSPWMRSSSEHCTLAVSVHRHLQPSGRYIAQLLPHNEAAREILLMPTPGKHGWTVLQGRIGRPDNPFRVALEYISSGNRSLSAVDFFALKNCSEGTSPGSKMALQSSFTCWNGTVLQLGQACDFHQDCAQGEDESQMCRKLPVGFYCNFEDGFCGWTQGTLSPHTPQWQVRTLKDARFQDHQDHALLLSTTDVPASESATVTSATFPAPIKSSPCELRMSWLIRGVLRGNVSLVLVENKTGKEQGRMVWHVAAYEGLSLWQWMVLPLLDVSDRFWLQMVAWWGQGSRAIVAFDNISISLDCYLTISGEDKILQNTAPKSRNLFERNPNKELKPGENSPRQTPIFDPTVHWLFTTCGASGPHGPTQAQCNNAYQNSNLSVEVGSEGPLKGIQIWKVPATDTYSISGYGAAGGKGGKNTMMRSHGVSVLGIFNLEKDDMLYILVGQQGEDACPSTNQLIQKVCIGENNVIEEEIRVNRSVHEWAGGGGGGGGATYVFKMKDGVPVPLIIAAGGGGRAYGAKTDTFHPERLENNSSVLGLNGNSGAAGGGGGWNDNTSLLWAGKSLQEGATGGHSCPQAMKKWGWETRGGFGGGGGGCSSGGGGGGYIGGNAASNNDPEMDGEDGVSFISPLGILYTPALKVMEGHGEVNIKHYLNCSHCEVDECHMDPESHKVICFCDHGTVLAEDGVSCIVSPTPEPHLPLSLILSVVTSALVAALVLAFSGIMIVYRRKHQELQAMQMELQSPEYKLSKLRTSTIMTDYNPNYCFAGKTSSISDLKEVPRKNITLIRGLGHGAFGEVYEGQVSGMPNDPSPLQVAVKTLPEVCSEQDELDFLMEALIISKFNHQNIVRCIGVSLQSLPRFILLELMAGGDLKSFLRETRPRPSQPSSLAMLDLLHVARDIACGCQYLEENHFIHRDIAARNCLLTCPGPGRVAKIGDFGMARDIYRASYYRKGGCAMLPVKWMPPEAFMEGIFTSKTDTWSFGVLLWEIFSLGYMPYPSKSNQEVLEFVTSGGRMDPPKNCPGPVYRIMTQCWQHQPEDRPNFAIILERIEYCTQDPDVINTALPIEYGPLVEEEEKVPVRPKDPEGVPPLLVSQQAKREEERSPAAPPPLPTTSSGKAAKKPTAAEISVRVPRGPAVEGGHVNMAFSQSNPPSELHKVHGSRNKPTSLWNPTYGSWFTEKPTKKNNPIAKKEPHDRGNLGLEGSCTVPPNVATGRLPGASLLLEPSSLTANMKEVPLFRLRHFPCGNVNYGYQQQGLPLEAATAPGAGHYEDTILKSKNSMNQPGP
Measured IC50 of individual entries

Quick one: IC50 of C[C@@H](Nc1ccn2ncc(C3=NOC(C)(C)N3)c2n1)c1cc(F)cc(F)c1 [Example 27] ? 5 to 50 nM

Check COc1ccc(F)cc1[C@@H](C)Nc1ccn2ncc(C3=NOC(C)(C)N3)c2n1 [Example 10] too. 5 to 50 nM

Check CCc1ccc(F)cc1[C@@H](C)Nc1ccn2ncc(C3=NOC(C)(C)N3)c2n1 [Example 52] too. 50 to 500 nM
